# System Under Test: CHO-XBP1 luciferase reporter, IRE1-XBP1 UPR activation
# Method Notes: XBP1 luciferase reporter activation – CHO-XBP1 cells, luminescence, counter-screen for apoptotic UPR arm activators, dose response (AID 489040);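 further: reporter read after six hours of compound exposure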
Calls of active or inactive are those of the source.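 How the source made its calls: active means mean half-maximal activating concentration from the dose-response fit at or below a set limit; inactive means the rest.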
Valid outcomes are listed here; reply with one: class 1 (active), class 0 (inactive)

The following compounds have reported results that may help.
- O=C1CC(c2cccc(Cl)c2)CC(O)=C1C=Nc1ccccc1 (stereo not drawn): class 0
- Cc1[nH]c2c(C)cccc2c1CCNC(=O)c1ccc2c(c1[N+](=O)[O-])C(=O)c1ccccc1C2=O: class 0
- Cc1ccc(NN2C(=O)C=C(c3ccccc3)C2=O)cc1: class 0

Ask | Call for entry COc1cc(/C=C2\COC/C(=C\c3ccc(O)c(OC)c3)C2=O)ccc1O :
Reply | class 0

Ask | Call for entry O=C(COc1ccc(/C=N/NC(=O)c2cc3ccccc3o2)cc1Br)Nc1ccccc1 :
Reply | class 1

###

# System Under Test: CHO-XBP1 luciferase reporter, IRE1-XBP1 UPR activation
# Method Notes: XBP1 luciferase reporter activation – CHO-XBP1 cells, luminescence, counter-screen for apoptotic UPR arm activators, dose response (AID 489040);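 further: reporter read after six hours of compound exposure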
The source made the active and inactive calls.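 Rule for the calls: active = mean half-maximal activating concentration from the dose-response fit at or below a set limit; inactive = the rest.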
Valid outcomes are listed here; reply with one: active, inactive

The following molecules have reported results that may help.
• Cn1nnnc1Sc1ncnc2scc(-c3ccc([N+](=O)[O-])cc3)c12 = inactive
• COc1ccc(OC)c(/C=C/C(=O)N2C(=O)c3cccc(N)c3C2=O)c1 = inactive
• Cn1nc(C(F)(F)F)c(/C=N/OC(=O)c2ccccc2)c1SCc1ccccc1Cl = active

Ask | Call for entry O=C(NCCc1ccc(F)cc1)c1coc(=O)c(Br)c1 :
Reply | inactive

Ask | Call for entry CCc1ccccc1NC(=S)N=Nc1c(O)n(C)c2ccc(S(=O)(=O)N3CCOCC3)cc12 :
Reply | inactive

Ask | Call for entry c1ccc(-c2nc(N3CCCCCC3)c3ccccc3n2)nc1 :
Reply | inactive

Ask | Call for entry Cc1ccc(-c2csc3ncnc(Sc4nnc(CN5CCCCCC5=O)o4)c23)cc1 :
Reply | inactive

Ask | Call for entry Oc1ccc(-c2csc(Nc3ccccn3)n2)cc1O :
Reply | inactive

Ask | Call for entry CSc1nnc(NC(=O)c2nc(S(=O)(=O)Cc3cccc(C)c3)ncc2Cl)s1 :
Reply | inactive

###

# System Under Test: CHO-XBP1 luciferase reporter, IRE1-XBP1 UPR activation
# Method Notes: XBP1 luciferase reporter activation – CHO-XBP1 cells, luminescence, counter-screen for apoptotic UPR arm activators, dose response (AID 489040);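 further: reporter read after six hours of compound exposure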
Activity calls are given as the source filed them.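 Rule for the calls: active = mean half-maximal activating concentration from the dose-response fit at or below a set limit; inactive = the rest.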
Valid outcomes are listed here; reply with one: active, inactive

The following compounds have reported results that may help.
* Cc1ccc2c(C(=O)CCl)c(C)[nH]c2c1 | inactive
* CCNc1ccccc1CP(=O)(c1ccccc1)c1ccccc1O (configuration not stated) | inactive
* CCOc1ccccc1-n1c(SCC(=O)Nc2ccc(CC)cc2)nc2n[nH]c(C)c2c1=N | active
* CCCCC(CC)CN=C(N)NC(N)=NCCCCCCN=C(N)NC(N)=NCC(CC)CCCC (configuration not stated) | inactive
* O=C(C[C@H]1C[C@H](C(=O)N2CCCCC2)[C@@]2(CCc3ccccc3)c3[nH]c4ccc(Cl)cc4c3CCN2C1=O)NCCC1=CCCCC1 | inactive

Ask | Call for entry O=C(Nc1nc2c(F)cc(F)cc2s1)c1ccccn1 :
Reply | inactive

Ask | Call for entry O=C(C#Cc1ccccc1)c1cccc([N+](=O)[O-])c1 :
Reply | inactive

Ask | Call for entry O=[N+]([O-])c1cc(-c2ncccn2)c([N+](=O)[O-])s1 :
Reply | inactive

Ask | Call for entry O=C1NC(=S)NC(=O)C1=Cc1ccc(Br)s1 :
Reply | inactive

Ask | Call for entry Cc1cc(C(=O)CCl)c(C)n1-c1cccc([N+](=O)[O-])c1 :
Reply | inactive

Ask | Call for entry S=C(Nc1ccccc1)Nc1nccs1 :
Reply | inactive

Ask | Call for entry Cc1ccc(Sc2ccc(/C=C3/C(=O)NN(c4ccccc4)C3=O)o2)cc1 :
Reply | inactive

Ask | Call for entry O=S(=O)(c1ccc(Cl)cc1)c1snnc1-c1ccccc1 :
Reply | inactive

Ask | Call for entry O=c1[nH]c(=S)n(C2CC2)c(O)c1C=Nc1cccc(C(F)(F)F)c1 :
Reply | inactive

Ask | Call for entry N#C/C(=C\c1ccc([N+](=O)[O-])o1)C(=O)Nc1ccc(F)cc1 :
Reply | inactive

Ask | Call for entry O=C1NN(c2cccc(Br)c2)C(=O)/C1=C/c1cccs1 :
Reply | active
